Answer each item with its documented inhibition at 10 µM.
Molecular target: human EP1 receptor (Homo sapiens, UniProt P34995)
Sequence (P34995 1-402): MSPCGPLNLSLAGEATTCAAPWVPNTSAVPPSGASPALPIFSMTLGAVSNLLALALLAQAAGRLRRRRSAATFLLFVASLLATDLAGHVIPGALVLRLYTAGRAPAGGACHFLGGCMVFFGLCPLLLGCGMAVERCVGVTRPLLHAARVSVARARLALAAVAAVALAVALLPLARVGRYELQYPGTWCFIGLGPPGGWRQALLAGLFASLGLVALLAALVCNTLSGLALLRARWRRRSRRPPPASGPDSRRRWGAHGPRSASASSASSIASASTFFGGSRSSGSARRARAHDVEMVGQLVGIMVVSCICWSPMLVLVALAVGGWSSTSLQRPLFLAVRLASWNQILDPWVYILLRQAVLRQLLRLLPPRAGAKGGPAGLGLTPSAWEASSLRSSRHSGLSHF
Assay: Test 1: Human EP1 receptor radioligand binding assay ([3H]-PGE2, transfected HEK-293 cell membranes)
Parameters: expressed in transfected cells; host or cells: HEK-293 cell membranes
Conditions: read-out: Results of Test 1 (Binding assay), % inh
Structures can show the parent of a compound that is named as a salt.

COMPOUND: COCc1cn(Cc2cc(Cl)ccc2OCc2ccc(Cl)cc2F)c2cccc(C(=O)O)c12
inhibition at 10 µM: > 75%

COMPOUND: O=C(O)c1cccc2c1ccn2Cc1cc(Cl)ccc1OCc1c(F)c(F)cc(F)c1F
inhibition at 10 µM: 45 to 75%

COMPOUND: O=C(O)c1cccc2c1c(CO)cn2Cc1ccccc1OCc1ccc(Cl)cc1F
inhibition at 10 µM: > 75%

COMPOUND: COc1ccc(OCc2ccc(F)cc2F)c(Cn2ccc3c(C(=O)O)cccc32)c1
inhibition at 10 µM: 45 to 75%

COMPOUND: CC(C)(F)COc1ccc(Cl)cc1Cn1cc(CCO)c2c(C(=O)O)cccc21
inhibition at 10 µM: > 75%

Each of the following entries comes with a recorded value; kindly state inhibition at 10 µM for each.
1. COCCOc1ccc(Cl)cc1CN1CCc2c(C(=O)O)cccc21
2. CC(C)(C)COc1ccc(Cl)cc1Cn1ncc2c(C(=O)O)cccc21
3. CC(C)COc1ccc(Cl)cc1CN1CCc2c(C(=O)NS(C)(=O)=O)ccnc21 [Example 234, sodium salt]

1. 45 to 75%
2. > 75%
3. > 75%

* * *

Answer each item with its documented inhibition at 10 µM.
target: human EP1 receptor (Homo sapiens); experiment: Test 1: Human EP1 receptor radioligand binding assay ([3H]-PGE2, transfected HEK-293 cell membranes); parameters: expressed in transfected cells; host or cells: HEK-293 cell membranes; details: read-out: Results of Test 1 (Binding assay), % inh

Guide cases for inhibition at 10 µM, answers given:
MOLECULE: O=C(O)c1cccc2c1ccn2Cc1cc(Br)ccc1OCc1ccc(Br)cc1F [Example 55]
inhibition at 10 µM: > 75%
--
MOLECULE: O=C(O)c1cccc2c1ccn2Cc1cc(F)ccc1OCc1cc(F)ccc1F [Example 32]
inhibition at 10 µM: 45 to 75%
--
MOLECULE: O=C(O)c1cccc2c1OCCN2Cc1cc(Cl)ccc1OC1CCC1 [Example 197]
inhibition at 10 µM: > 75%
--
MOLECULE: O=C(O)c1cccc2c1ccn2Cc1cc(Cl)ccc1OCc1ccc(C(F)(F)F)cc1C(F)(F)F [Example 14]
inhibition at 10 µM: > 75%
--
MOLECULE: O=C(O)c1cccc2c1OCC(=O)N2Cc1cc(Br)ccc1OCc1ccc(Cl)cc1F [Example 115]
inhibition at 10 µM: > 75%
--
MOLECULE: CC(C)(C)COc1ccc(Cl)cc1CN1CCc2c(C(=O)O)cccc21 [Example 203]
inhibition at 10 µM: 45 to 75%

For each of the molecules below, state inhibition at 10 µM.
1. CCCOc1ccc(F)cc1Cn1ncc2c(C(=O)O)cccc21 [Example 135]
2. O=C(O)c1cccc2c1ccn2Cc1cc(Br)ccc1OCc1ccc(F)c(Br)c1 [Example 25]
3. O=C(O)c1cccc2c1cnn2Cc1cc(Cl)ccc1OC1CCC1 [Example 137]
4. O=C(O)c1cccc2c1ccn2Cc1cc(Cl)ccc1OCC(F)(F)F [Example 112]
5. CC(C)C(C)Oc1ccc(Cl)cc1CN1CCCc2c(C(=O)O)cccc21 (stereo not shown) [Example 176]
6. Cc1ccc(OCc2ccc(Cl)cc2F)c(CN2CCOc3c(C(=O)O)cccc32)c1 [Example 194]
7. O=C(O)c1cccc2c1ccn2Cc1cc(C(F)(F)F)ccc1OCc1cccc(F)c1 [Example 49]
8. O=C(O)c1cccc2c1c(CO)nn2Cc1cc(Cl)ccc1OCc1ccc(Cl)cc1F [Example 188]

1. 45 to 75%
2. 45 to 75%
3. > 75%
4. > 75%
5. 45 to 75%
6. > 75%
7. 45 to 75%
8. > 75%

Please give inhibition at 10 µM for each item listed below.
1. O=C(O)c1cccc2c1c(CO)cn2Cc1cc(F)ccc1OCc1ccc(F)cc1F [Example 145]
2. O=C(O)c1cccc2c1ccn2Cc1ccccc1OCc1ccc(F)cc1F [Example 54]

1. > 75%
2. 45 to 75%

Go through the list and state inhibition at 10 µM for each entry.
1. CC(CF)COc1ccc(Cl)cc1Cn1cc(CO)c2c(C(=O)O)cccc21 (stereo not shown) [Example 151]
2. O=C(O)c1cccc2c1cnn2Cc1cc(Br)ccc1OCc1ccc(Cl)cc1F [Example 136]
3. O=C(O)c1cncc2c1CCCN2Cc1cc(Cl)ccc1OCc1ccc(Cl)cc1F [Example 226]

> 75%
> 75%
> 75%

Items follow; give inhibition at 10 µM for each.
1. O=C(O)c1cccc2c1ccn2Cc1cc(Br)ccc1OCc1ccc(F)c(F)c1F [Example 22]
2. CC(C)(F)COc1ccc(Cl)cc1CN1CCCc2c(C(=O)O)cccc21 [Example 177]
3. O=C(O)c1ncnc2c1ccn2Cc1cc(Cl)ccc1OCc1ccc(F)cc1F [Example 99]

1. 45 to 75%
2. > 75%
3. > 75%
